EXPERIMENTAL_TARGET: recombinant IRAK-4 kinase (Homo sapiens)
Sequence (Q9NWZ3 whole entry): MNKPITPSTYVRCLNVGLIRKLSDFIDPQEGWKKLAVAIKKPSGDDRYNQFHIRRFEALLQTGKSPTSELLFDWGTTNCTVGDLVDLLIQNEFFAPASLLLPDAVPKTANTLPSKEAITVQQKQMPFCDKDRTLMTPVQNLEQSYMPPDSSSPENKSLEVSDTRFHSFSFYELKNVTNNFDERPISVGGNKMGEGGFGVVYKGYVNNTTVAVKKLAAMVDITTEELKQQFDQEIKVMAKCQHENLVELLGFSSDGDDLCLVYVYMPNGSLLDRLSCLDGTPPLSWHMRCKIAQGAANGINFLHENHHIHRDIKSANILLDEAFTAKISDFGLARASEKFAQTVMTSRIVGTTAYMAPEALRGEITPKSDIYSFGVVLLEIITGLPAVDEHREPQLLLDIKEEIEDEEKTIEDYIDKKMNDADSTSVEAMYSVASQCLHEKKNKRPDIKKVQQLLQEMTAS
METHOD_DESCRIPTION: IRAK-4 Biochemical Assay (TR-FRET)
SETUP_CONDITIONS: 5 ng IRAK-4 kinase, 100 nM Biotin Histone H3, 20 μM ATP, 30 minutes pre-incubation, read-out: IC50 values for IRAK4 activity
pIC50: −log10 of the molar value. Structures can show the parent of a compound that is named as a salt.
OUTCOME_MEASURE: pIC50

[[record]]
compound = "COc1ccc(-c2nc(C(=O)Nc3cc4sc(N5CCOCC5)nc4nc3N3CC[C@H](O)C3)co2)cn1 [Example 77]"
outcome_measure = "pIC50"
measured_value = "> 7.30"

[[record]]
compound = "COc1ccc(-c2nc(C(=O)Nc3cc4sc(N5CCOCC5)nc4nc3N3CCC(O)C3)co2)cn1 (stereo not shown) [Example 76]"
outcome_measure = "pIC50"
measured_value = "> 7.30"

[[record]]
compound = "Nc1cc(-c2nc(C(=O)Nc3cc4sc(N5CCOCC5)nc4nc3N3CCCCC3)co2)ccn1 [Example 92, hydrochloride]"
outcome_measure = "pIC50"
measured_value = "> 7.30"

[[record]]
compound = "O=C(Nc1cc2oc(N3CCCCC3)nc2nc1N1CCCCC1)c1coc(-c2cccnc2O)n1 [Example 28]"
outcome_measure = "pIC50"
measured_value = "< 7.00"

[[record]]
compound = "O=C(Nc1cc2oc(N3CCCCC3)nc2nc1N1CCCCC1)c1cccc(-c2cn[nH]c2)n1 [Example 4, hydrochloride]"
outcome_measure = "pIC50"
measured_value = "7.00 to 7.30"

[[record]]
compound = "COc1ccc(-c2nc(C(=O)Nc3cc4oc(N5CCOCC5)nc4nc3N3CC[C@H](O)C3)co2)cn1 [Example 103]"
outcome_measure = "pIC50"
measured_value = "< 7.00"


Item: O=C(Nc1cc2oc(N3CCOCC3)nc2nc1N1CCCCC1)c1coc(-c2cccnc2O)n1 [Example 29] | pIC50: > 7.30

Item: O=C(Nc1cc2sc(N3CCOCC3)nc2nc1N1CCCCC1)c1cccc(-c2cn[nH]c2)n1 [Example 21] | pIC50: > 7.30

Item: Cc1cc(-c2nc(C(=O)Nc3cc4sc(N5CCOCC5)nc4nc3N3CC(O)C3)co2)ccn1 [Example 80] | pIC50: > 7.30

Cited source: patent US10047104B2
